So I've got a bunch of compounds here, and I need their melting point values.

# input Dear colleague, I am looking for the recorded melting point of the following compound: O=C(CC(Cc1ccccc1)C(=O)O)c1ccc(Cl)cc1 (racemic)
# output 137 to 138 °C

# input Ok, now CCOC(=O)C(CCc1ccccc1)NC(CCCCNC(=O)CNC(=O)OC(C)(C)C)C(=O)O (stereo unspecified)
# output 137 °C

# input Ok, now Cc1ccc(C)n1-c1ccc(C(=O)N(C)C)cc1
# output 102 to 104 °C

# input Ok, now O=C(CCC(=O)c1ccccc1)NC1CCCCC1
# output 109 to 111 °C

# input Ok, now CCC(=O)Cc1cc2cc(OCCNC[C@H](O)COc3ccccc3)ccc2o1
# output 99 to 100 °C

# input Ok, now O=C1c2ccncc2C(=O)c2c(Cl)ccc(F)c21
# output 204 to 206 °C

* * *

So I've got a bunch of compounds here, and I need their melting point values.

# input Dear colleague, I am looking for the recorded melting point of the following compound: CC1CCC(Oc2ccc(CC(=O)c3ccc4c(c3)CCC4)cc2)(C(=O)O)C1 (stereo not drawn)
# output 148 to 151 °C

# input Ok, now CC(=O)OC1=C(c2ccccc2)C(=O)N(C(C)(C)c2ccccc2)C1
# output 149 to 150 °C

# input Ok, now Brc1cc(Br)c(-c2ccccc2)nn1
# output 145 to 146 °C

* * *

So I've got a bunch of compounds here, and I need their melting point values.

# input Dear colleague, I am looking for the recorded melting point of the following compound: C#CCOC(=O)Cc1c(C)nn(-c2cnccc2C)c1-c1ccccc1
# output 106 °C

# input Ok, now CCCNC(=O)N1CC(Oc2ccc(C(F)(F)F)cc2)C1
# output 119 to 120 °C

# input Ok, now COc1ccc2c(c1OC)C(=Cc1ccccc1)c1ccccc1-2
# output 210 °C

# input Ok, now CNC(=O)Nc1ccc2c(c1)C(CN1CCC(n3ccc4cc(Cl)ccc43)CC1)CC2 (stereo not given)
# output 193 to 195 °C

# input Ok, now O=C(O)c1cnc(Cn2cc(C3c4ccccc4C=Cc4ccccc43)c(=S)[nH]c2=O)s1
# output 198 to 200 °C

# input Ok, now O=c1c2c(Br)cc(Br)cc2n(Cc2ccccc2)c(=O)n1Cc1ccccc1
# output 169 to 172 °C

# input Ok, now COc1cccc2c1CC(COS(=O)(=O)c1ccc(C)cc1)CC2 (stereo not given)
# output 53 to 58 °C

# input Ok, now CC(=O)OCc1c(C(=O)C(=O)O)c2cc(-c3ccc(OC(F)(F)F)cc3)ccc2n1Cc1ccc(C)cc1
# output 79 to 80 °C

# input Ok, now CN1C(=O)C(c2ccc(Cl)cc2)S(=O)C1c1cccnc1 (stereo not given)
# output 149 to 153 °C

# input Ok, now CC(C)n1cc(Nc2nc(-c3ccc4cn[nH]c4c3)cn3ccnc23)cn1
# output > 250 °C

# input Ok, now O=C(CN1CCC(Cc2ccc(F)cc2)CC1)Nc1ccc2cn[nH]c2c1
# output 135 to 137 °C

# input Ok, now O=C(/C=C/c1ccccc1)OCCOC(=O)NC1(C(=O)O)CC1
# output 169 to 172 °C

# input Ok, now O=C(/C=C/C=C/c1ccc(Br)cc1)NCCCC(=O)NO
# output 173 to 175 °C

# input Ok, now CC(C)(C)c1cc2c(c(C(=O)Nc3ccc(S(=O)(=O)C(F)(F)F)cc3Cl)c1O)CCCC2
# output 151 °C

# input Ok, now CCCCCCCCn1c(C)c(C(=O)c2ccccc2C(=O)O)c2ccccc21
# output 121 to 123 °C

# input Ok, now CC1=NC(NC(=O)Nc2cccc(C)c2)C(=O)N(CC(=O)N(C)c2ccccn2)c2c(C)cccc21 (stereo not given)
# output 222 to 224 °C

# input Ok, now CC(=O)c1nc(-c2ccccc2)oc1C
# output 74 to 76 °C

# input Ok, now COC(=O)C1CCC(=O)N1C(=O)Nc1ccccc1 (stereo not given)
# output 91 to 92 °C

# input Ok, now O=Cc1c(Cl)cc(OCCO)cc1Cl
# output 83 to 85 °C

# input Ok, now CS(=O)(=O)Nc1ccc2[nH]c(=O)n(CCCCN3CC=C(c4ccccc4)CC3)c(=O)c2c1
# output 193 to 195 °C

# input Ok, now OC(COc1ccc(Cl)cc1)(Cn1cncn1)c1ccc(Br)s1 (stereo not given)
# output 108 to 112 °C

# input Ok, now CN(C)C=NC1CCN(Cc2ccccc2)CC1
# output 61 to 65 °C

# input Ok, now C=CCN(CC=C)Cc1noc(-c2ncn3c2[C@@H]2CCN2C(=O)c2c-3cccc2C(F)(F)F)n1
# output 147 to 150 °C

# input Ok, now NC(=O)[C@@H]1[C@H](Nc2c(Br)cnc3[nH]c(-c4ccc(N5CCOCC5)cc4)nc23)[C@H]2C=C[C@@H]1C2
# output 283 to 284 °C

# input Ok, now Nc1cccc(/C=C/c2nc(C3CCCC3)cs2)c1
# output 59 to 61 °C

# input Ok, now Cc1cc(Br)ccc1C1(CBr)OCCO1
# output 86 °C

# input Ok, now O=C(CC(=O)c1ccc(-c2ccccc2)cc1)Nc1ccc(OCCN2CCCC2)c(C(=O)O)c1
# output 236 to 240 °C

# input Ok, now NS(=O)(=O)c1ccc(-c2noc(-c3cnn4c(C(F)(F)F)cc(-c5ccc(C(F)(F)F)c(OCC(F)(F)F)c5)nc34)n2)s1
# output 255 °C

# input Ok, now CCCS(=O)(=O)c1sc(C(N)=O)c2c1-c1c(cnn1CC(F)(F)F)CC2
# output 141 to 142 °C

# input Ok, now CNc1nc(SC)ncc1CO
# output 155 to 157 °C
